Below, each of the compounds is paired with its reported growth value.
test system: HT29 colon; experiment: NCI-60 one-dose screen, 48 h (100 = growth as untreated, 0 = no growth, -100 = all killed); settings: 10 µM unless noted
This is part of a sample that, as a whole, favours compounds with a hit. Of some 83,000 tested, about 20% had one in any assay.
Answer in %, number only, no unit symbol.

[[record]]
compound = "C=C1[C@@H](O)C[C@H]2C(C)(C)C[C@H](Cl)C[C@]2(C)[C@H]1C[C@H](O)[C@H]1CC(=O)NC1=O"
unit = "%"
recordedresult = -23.6

[[record]]
compound = "CC(=O)OC(C(=O)c1ccccc1)c1ccccc1 (stereo not given)"
unit = "%"
recordedresult = 80.4

[[record]]
compound = "Cn1c(Nc2ccc(C(F)(F)F)cc2)nc2cc(Oc3ccnc(-c4ncc(C(F)(F)F)[nH]4)c3)ccc21"
unit = "%"
recordedresult = 6.83

[[record]]
compound = "CCCCCCC1(/C=N/NC(N)=O)NC(=O)NC1=O (stereo not given)"
unit = "%"
recordedresult = 76.9


Query: Param item = COc1cc2cc(NCc3ccc(F)cc3)nc(C)c2cc1OC ; retrieve measured growth.
Result: 11.9

Query: Param item = CC[C@H](CO)Nc1nc(NCc2ccccc2)c2ncn(C(C)C)c2n1 ; retrieve measured growth.
Result: 54
